Here the recorded growth is given for each entry.
- System: SNB-75 CNS
- assay-overview: NCI-60 one-dose screen, 48 h (100 = growth as untreated, 0 = no growth, -100 = all killed)
- assay-context: 10 µM unless noted
This is part of a sample that, as a whole, favours compounds with a hit. Of some 83,000 tested, about 20% had one in any assay.

compound	growth [%]
O=C(CSc1nc2ccc([N+](=O)[O-])cc2[nH]1)Nc1cccc([N+](=O)[O-])c1	49.5
COc1ccc(-c2oc(=O)ccc2-c2cc(OC)c(OC)c(OC)c2)cc1O	-1.81
CCCCn1sc(=O)n(Cc2ccc(CNC(=O)OCc3ccc4c(Cl)cc(Cl)c(O)c4n3)cc2)c1=O	81.1
CS(=O)(=O)Nc1cncc(-c2ccc3ncnc(Nc4ccc(F)c(Cl)c4)c3c2)c1	33
CCOC(=O)c1c(-c2ccccc2)n2c(=O)cc(C)c3c(O)c(O)cc1c32	63.6
COc1ccc2nc3cc(Cl)ccc3c(NCCN)c2c1	91.6
Cn1ncc2ccc(-c3nc(-c4ccccc4)[nH]c3-c3n[nH]c(=O)n3C3CC3)cc21	81.2
COc1ccccc1-n1c(-c2cc(O)ccc2C)cn2c3c(=O)[nH]c(=O)n(C)c3nc12	-32
N#CC(C#N)N=Nc1ccc(Cl)cc1Cl	89.3
CCN1C(=O)N(CC)C2C1NN=C1SCC(=O)N12 (stereo not given)	85.8

* * *

- Test system: MDA-MB-435 melanoma
- assay-overview: NCI-60 one-dose screen, 48 h (100 = growth as untreated, 0 = no growth, -100 = all killed)
- assay-context: 10 µM unless noted
Compounds without any hit were thinned out: in the full panel of roughly 83,000, 20% have a hit.
The following compounds are listed with their measured growth values.

compound	growth (%)
COc1cc(C(=O)c2c(N)ncn2-c2ccccc2)cc(OC)c1OC	43.8
COc1cc(C(=O)c2c(-c3ccccc3)oc3c(OC)cccc23)cc(OC)c1O	-30.4
CCCNc1nc2ccccc2c2c(=O)c3cccc(Cl)c3sc12	101
COc1ccc(C2C(C#N)=C(N)Oc3c2sc2c(Br)cccc32)cc1 (configuration not stated)	-18.1
COc1ccc(Cc2nnc(Nc3nc4ccccc4s3)s2)cc1	96.8
Cc1cccc(N2CCN(C(=S)c3ccc4c(c3)OCO4)CC2)c1	-20.9
Cc1cccc(-n2c(C)nc3ccc(N4CCCNC4=O)cc3c2=O)c1	104
C#Cc1cccc(Nc2nc3ccc([N+](=O)[O-])cc3nc2Nc2cccc(C#C)c2)c1	-78
CCOC(=O)NN1CC(O)=C(c2nc(-c3ccc(Br)cc3)cs2)C1=N	103
NNC(=S)N/N=C/c1ccccn1	46.4
Clc1ccc(-c2cn3ccsc3n2)c(Cl)c1Cl	96.6
Cn1c(=O)c2c(c3ccccc31)OC(N)=C(C#N)C21C(=O)c2ccccc2C1=O	98.4
c1ccc(CNc2ccc3nc(CCC4CCCCC4)[nH]c3c2)cc1	81.6
CCCCCCCCCCCCCCCCOC(=O)c1c(C)[nH]c(/C=C2\N=C(c3ccc[nH]3)C=C2OC)c1C	15.7
CCn1cc(C2=C(c3cn(C)c4ncccc34)C(=O)NC2=O)c2cccnc21	65
O=P(O)(O)OCC1OC(n2cnc3c(NCc4ccccc4)ncnc32)C(O)C1O (configuration not stated)	25.4
O=C1Nc2ccccc2/C1=C/c1cn(C[C@@H](O)Cn2c3ccccc3c(=O)c3ccccc32)c2ccccc12	85.1
COc1ccc(C2=CN3CC=CCC3CC2=O)cc1 (configuration not stated)	106
O=C(CSc1nnc2sc(Nc3cccc(Cl)c3)nn12)c1ccc(F)cc1	100
COc1cccc(NC(=O)c2cccc(C3CCc4c(cc(OC)c(OC)c4OC)O3)c2)c1 (configuration not stated)	79.6
CC(C)=CC(=O)N[C@@H]1CC2CCC3C(CC[C@@]4(C)C3CC[C@@H]4C(C)N(C)C)[C@@]2(C)C[C@@H]1O (some centres not stated)	12.6
CC(C(=O)O)n1c(O)c(C=Nc2cccnc2)sc1=S (configuration not stated)	100
Cc1ccc(-c2csc(NC(=O)N3CCN(c4cc5c(cc4F)c(=O)c(C(=O)O)cn5C4CC4)CC3)n2)cc1	17.6
CCOC(=O)C(=Cc1cccc(C#N)c1)C(=O)OCC	55.4
CCCCCCCC/C=C\CCCCCCCCOc1ccc(CC(=O)NCC[N+](C)(C)C)cc1	86.5
COc1cc2cc(Oc3ccc(NC(=O)Nc4ccccc4)cc3)c(C)nc2cc1OCCN1CCCCC1	61.8
Cc1ccc(S(=O)(=O)n2cc(C3C(Cl)C(=O)N3c3ccc(N4CCOCC4=O)cc3)c3ccccc32)cc1 (configuration not stated)	-21.2
CCC(CC)(N(CC(=O)O)CC(=O)O)C(CC)(CC)N(CC(=O)O)CC(=O)O	126
Cc1ccc(C)c2c1C(O)(C#Cc1ccccc1)c1ccccc1C2(O)C#Cc1ccccc1 (configuration not stated)	47.9
CCC(C)Nc1ccc(NC(C)CC)cc1 (configuration not stated)	95.3
O=C1NC(=O)c2c1c1c3ccccc3[nH]c1c1oc3ccc(F)cc3c21	76
CC1(C)OC(=O)C(=Cc2cccc(Br)c2)C(=O)O1	108
COc1cccc(Nc2ccnc3[nH]c4ccc([N+](=O)[O-])cc4c23)c1	-24.4
O=C(/C=C/c1cccc(Cl)c1)c1cccc(OCCCCOc2cccc(C(=O)/C=C/c3cccc(Cl)c3)c2)c1	70.9
CCN(CC)CCOc1nc2c3ccc(Cl)cc3nn2c2ccccc12	36.3
COc1cc(-c2nc(NC(C)=O)sc2-c2ccnc(NCCNS(=O)(=O)c3ccccc3)n2)ccc1Cl	-62.3
O=C(O)CCCc1cnc2c3sccc3nc(SCc3c(Cl)cccc3Cl)n12	6.44
COc1ccc(Cl)cc1Nc1nc(C(F)(F)F)ccc1C(=O)N/N=C/c1ccccc1Cl	26.9
CCOC(=O)C/C(=N\Nc1cc(=O)[nH]c2ccc(Cl)cc12)C(=O)OCC	102
CCNCc1ccc(O)c2ncccc12	16.6
CC(C)CCC[C@@H](C)C1CCC2C3CCC4=C/C(=N/OCCN(C)C)CC[C@]4(C)C3CC[C@@]21C (some centres not stated)	102
COc1ccc(C2C3=C(COC3=O)N(CCO)c3cc4c(cc32)OCCO4)cc1OC (configuration not stated)	-44.1

* * *

Each record here notes measured growth.
- Tested on: NCI-H460 lung
- assay-overview: NCI-60 one-dose screen, 48 h (100 = growth as untreated, 0 = no growth, -100 = all killed)
- assay-context: 10 µM unless noted
This is part of a sample that, as a whole, favours compounds with a hit. Of some 83,000 tested, about 20% had one in any assay.

smiles-text	growth (%)
Cc1cc(N2CCN(C)CC2)nc(NCc2cc(Nc3ccnc4cc(Cl)ccc34)ccc2F)n1	-54.3
O=C1NC(=C(Cl)Cl)/C(=N/S(=O)(=O)NCCc2c[nH]c3ccccc23)N1	66.8
COc1cc(/C=C/c2cc(/C=C/c3ccc(O)c(OC)c3)n(C(=O)Nc3ccc(F)cc3)n2)ccc1O	8.35
COc1cc(-c2nc(SCCC(C)C)nc(N3CCOCC3)c2C#N)cc(OC)c1OC	12.2
CC/C(Cc1ccccc1)=C(\c1ccc(OCCN2CCCCCC2)cc1)c1ccc(OC(=O)NCc2ccccc2)cc1	5.51
CCN(CC)CCOc1nc2c3ccc(Cl)cc3nn2c2ccccc12	11.4
CCCCCCCCCCCCCCCCOC(=O)c1c(C)[nH]c(/C=C2\N=C(c3ccc[nH]3)C=C2OC)c1C	13.3
O=C(O)c1cn(C2CC2)c2cc(N3CCN(C(=O)N/N=C/c4ccccc4)CC3)c(F)cc2c1=O	109
CCOC(=O)Cn1c(=O)c2c3ccccc3n(C)c2n2nnc(-c3ccccc3)c12	101

* * *

- Tested on: HCT-116 colon
- assay-overview: NCI-60 one-dose screen, 48 h (100 = growth as untreated, 0 = no growth, -100 = all killed)
- assay-context: 10 µM unless noted
The panel holds about 83,000 compounds, 20% with a hit somewhere; the sample as a whole holds those more often.
measurement-name: growth (%)

compound	measurement-name	numeric-readout
CCC/C(=N\NC(N)=O)C(OC)OC	growth	102
COc1ccc(C2C(C#N)=C(N)Oc3c2sc2c(Br)cccc32)cc1 (stereo unspecified)	growth	22.4
CCN(CC)CCN(CCN(CC)CC)c1ccccc1	growth	74.6
Cc1nc2sc(C(=O)Nc3cccc(Cl)c3)c(N)c2cc1C(O)c1ccccc1 (stereo unspecified)	growth	13.9
CC(C)c1ccc(C(=O)Nc2sc3cc(O)ccc3c2C#N)cc1	growth	15
Cc1cc(N2CCCCC2)nc(N2CCN(CC(=O)Nc3ccc4c(ccn4Cc4ccccc4)c3)CC2)n1	growth	43.6
CC(C)CCSc1nc(Nc2ccccc2)c(C#N)c(-c2ccccc2)n1	growth	27.5
COC(=O)C1=C(C)NC(C)=C(C(=O)OCC(C)C)C1c1ccccc1[N+](=O)[O-] (stereo unspecified)	growth	30.1
COc1ccc(-c2ccc(=O)oc2C#Cc2cc(OC)c(OC)c(OC)c2)cc1O	growth	-30.4
C=C1C(=O)O[C@H]2[C@H]1CC/C(COC(=O)NCCCCCCCCNC(=O)OC/C1=C/CC[C@@]3(C)O[C@H]3[C@H]3OC(=O)C(=C)[C@@H]3CC1)=C\CC[C@@]1(C)O[C@@H]21	growth	-79.2
COc1cccc2c(N=NC(=O)c3ccc(S(N)(=O)=O)cc3)c(O)[nH]c12	growth	99.4
CC1(C)CC[C@]2(C(=O)O)CC[C@]3(C)C(=CC[C@@H]4[C@@]5(C)C[C@@H](Cc6cn([C@@H]7O[C@H](CO)[C@@H](O)[C@H](O)[C@H]7O)nn6)[C@H](O)C(C)(C)[C@@H]5CC[C@]43C)[C@@H]2C1	growth	96.4
CCOC(=O)c1c(-c2ccccc2)n2c(=O)cc(C)c3c(O)c(O)cc1c32	growth	24.5
C=C(CO)[C@@H]1CC[C@]2(COC3CCCCO3)CC[C@]3(C)[C@H](CC[C@@H]4[C@@]5(C)C=C(C=O)C(=O)C(C)(C)[C@@H]5CC[C@]43C)[C@@H]12 (stereo partly specified)	growth	-89.3
COc1ccc2c(c1)c(-c1ccc(-c3cn(C)c4ccc(OC)cc34)[nH]1)cn2C	growth	4.08
CC1(C)CC2=C3C=C[C@@H]4[C@@]5(C)CC[C@H](O)C(C)(C)[C@@H]5CC[C@@]4(C)[C@]3(C)CC[C@@]2(C(=O)O)CC1=O	growth	12.8
O=C(Cn1nnc2ccccc21)Nc1ccc(-c2nc3ccccc3s2)cc1	growth	97.4
O=C(Cn1cc(CN2C(=O)c3ccccc3S2(=O)=O)nn1)Nc1cccc(Cl)c1	growth	98.8
CCOC(=O)c1cn2ncnc(Oc3ccc(NC(=O)NC4CC4)c(F)c3)c2c1C	growth	76.9
C=C1C(=O)O[C@H]2[C@H]1CC/C(COC(=O)c1cc3cc(F)ccc3[nH]1)=C\CC[C@@]1(C)O[C@@H]21	growth	-87.2
Cc1cccc(-n2c(C)nc3ccc(N4CCCNC4=O)cc3c2=O)c1	growth	102
Cn1ncc2ccc(-c3nc(-c4ccccc4)[nH]c3-c3n[nH]c(=O)n3C3CC3)cc21	growth	86.3
COc1cccc(/C=C/C(=O)c2cc3c(N)c(C(=O)Nc4cccc(Cl)c4C)sc3nc2C)c1	growth	-34.2
COc1ccccc1NC(=O)c1ccc(/C=C/C(=O)c2nccn2C)cc1	growth	-84.9
Fc1ccc(COc2ccc(Nc3ncnc4sc5c(c34)CCCC5)cc2)cc1	growth	93.7
COc1cc(-c2nc(SCCC(C)C)nc(N3CCOCC3)c2C#N)cc(OC)c1OC	growth	5.13
COc1ccc(C2=NN(C(=O)c3cc(OC)c(OC)c(OC)c3)C(c3ccc(N(C)C)cc3)C2)cc1 (stereo unspecified)	growth	11.8
Fc1ccc2c(c1)c(-c1nc(-c3c[nH]c4ncccc34)cs1)cn2CCCN1CCOCC1	growth	40.4
CN1CCN(CCCOc2ccc3ncnc(Nc4ccc(Oc5cccc(F)c5)c(Cl)c4)c3c2)CC1	growth	-63.6
N/C(=N\c1nc2ccccc2s1)NC(=NC1CCCCC1)NC1CCCCC1	growth	0.368
COc1ccc(Nc2ncccc2NC(=O)c2cn(Cc3cccc(Oc4ccccc4)c3)nn2)cc1OC	growth	80.7
CCN1C(=O)N(CC)C2C1NN=c1s/c(=C3\C(=O)N(CCc4ccccc4)c4ccccc43)c(=O)n12 (stereo unspecified)	growth	2.18
CCn1cc(C2=C(c3cn(C)c4ncccc34)C(=O)NC2=O)c2cccnc21	growth	70.9
COC(=O)/C=C1/SC(=Nc2cccc(Cl)c2)N(CCc2c[nH]c3ccc(O)cc23)C1=O	growth	-33
N#Cc1nc(-c2ccc(F)cc2)oc1S(=O)(=O)N1CCN(c2ccc(F)cc2)CC1	growth	46.7
COc1ccc2nc3cc(Cl)ccc3c(NCCN)c2c1	growth	-73.2
